molecular target: 17-beta-hydroxysteroid dehydrogenase type 2 (Homo sapiens) (UniProt P37059); test: Inhibition of human recombinant 17beta-HSD2 at 0.1 uM by cell-free assay
Measured quantity: inhibition

Record O=CC1=C(Sc2ccc3ccccc3c2)c2sc3nc4n(c(=O)c3c2CC1)CCCCC4 . Reported inhibition: 19%

Record CCCSc1c(CO)ccc2c1sc1nc3n(c(=O)c12)CCCCC3 . Reported inhibition: 13.6%

* * *

biological target: 17-beta-hydroxysteroid dehydrogenase type 2 (Homo sapiens) (UniProt P37059); experiment: Inhibition of human recombinant 17beta-HSD2 at 1 uM by cell-free assay
Active and inactive are the calls of the source. The rule behind the calls is not given here.
Measured quantity: inhibition

Check out these entries, answers already filled in.
> print(dat)
                                chem.smiles                                 tested.on  measured.quantity  reported.measurement
1  O=CC1=C(SCc2ccccc2)c2sc3nc4n(c(=O)c3c2CC1)CCCCC4  17-beta-hydroxysteroid dehydrogenase type 2 (Homo sapiens) (UniProt P37059)         inhibition                 62.2%
2  O=c1c2c(nc3n1CCCCC3)sc1c(Sc3ccccc3)c(CO)ccc12  17-beta-hydroxysteroid dehydrogenase type 2 (Homo sapiens) (UniProt P37059)         inhibition                 37.3%
3  O=CC1=C(Sc2cccc(O)c2)c2sc3nc4n(c(=O)c3c2CC1)CCCCC4  17-beta-hydroxysteroid dehydrogenase type 2 (Homo sapiens) (UniProt P37059)         inhibition                 48.1%
4  O=CC1=C(Sc2ccc3ccccc3c2)c2sc3nc4n(c(=O)c3c2CC1)CCCCC4  17-beta-hydroxysteroid dehydrogenase type 2 (Homo sapiens) (UniProt P37059)         inhibition                 40.1%
5  O=CC1=C(SC2CCCCC2)c2sc3nc4n(c(=O)c3c2CC1)CCCCC4  17-beta-hydroxysteroid dehydrogenase type 2 (Homo sapiens) (UniProt P37059)         inhibition              inactive

Record O=CC1=C(SCC(=O)N2CCOCC2)c2sc3nc4n(c(=O)c3c2CC1)CCCCC4 . Reported inhibition: 3.1%

Record CCCSC1=C(C=O)CCc2c1sc1nc3n(c(=O)c21)CCCCCC3 . Reported inhibition: 36.9%

Record COc1ccc(SC2=C(C=O)CCc3c2sc2nc4n(c(=O)c32)CCCCC4)cc1 . Reported inhibition: 53%

Record CC(C)(C)SC1=C(C=O)CCc2c1sc1nc3n(c(=O)c21)CCCCC3 . Reported inhibition: 1.2%

* * *

Target: 17-beta-hydroxysteroid dehydrogenase type 2 (Homo sapiens) (UniProt P37059)
Sequence (whole entry): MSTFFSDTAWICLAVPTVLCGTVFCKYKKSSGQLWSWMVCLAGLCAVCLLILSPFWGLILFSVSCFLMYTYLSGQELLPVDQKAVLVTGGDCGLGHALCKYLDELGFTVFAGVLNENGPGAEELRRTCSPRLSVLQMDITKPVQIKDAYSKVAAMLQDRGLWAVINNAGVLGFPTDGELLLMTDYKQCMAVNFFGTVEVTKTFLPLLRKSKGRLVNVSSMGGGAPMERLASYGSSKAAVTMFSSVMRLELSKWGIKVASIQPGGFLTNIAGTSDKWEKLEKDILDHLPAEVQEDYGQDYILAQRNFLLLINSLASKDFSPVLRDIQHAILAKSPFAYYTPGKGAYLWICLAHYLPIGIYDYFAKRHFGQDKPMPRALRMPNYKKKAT
Assay: Inhibition of human recombinant 17beta-HSD2 at 1 uM by cell-free assay
Activity calls are given as the source filed them. The rule behind the calls is not given here.
Measured quantity: inhibition

> print(dat)
                                chem.smiles                                 tested.on  measured.quantity  reported.measurement
1  O=CC1=C(Sc2ccccc2O)c2sc3nc4n(c(=O)c3c2CC1)CCCCC4  17-beta-hydroxysteroid dehydrogenase type 2 (Homo sapiens) (UniProt P37059)         inhibition                 71.6%
2  O=Cc1ccc2c(sc3nc4n(c(=O)c32)CCCCC4)c1Sc1ccccc1  17-beta-hydroxysteroid dehydrogenase type 2 (Homo sapiens) (UniProt P37059)         inhibition              inactive
3      CCCSC1=C(C=O)CCc2c1sc1ncn(C)c(=O)c21  17-beta-hydroxysteroid dehydrogenase type 2 (Homo sapiens) (UniProt P37059)         inhibition                 17.4%
4  CC(C)SC1=C(C=O)CCc2c1sc1nc3n(c(=O)c21)CCCCC3  17-beta-hydroxysteroid dehydrogenase type 2 (Homo sapiens) (UniProt P37059)         inhibition              inactive

Record CCCCSC1=C(C=O)CCc2c1sc1nc3n(c(=O)c21)CCCCC3 . Reported inhibition: 7.8%
